experimental system: Protein FosB (Mus musculus) (UniProt P13346)
Sequence (P13346 whole entry, looked up): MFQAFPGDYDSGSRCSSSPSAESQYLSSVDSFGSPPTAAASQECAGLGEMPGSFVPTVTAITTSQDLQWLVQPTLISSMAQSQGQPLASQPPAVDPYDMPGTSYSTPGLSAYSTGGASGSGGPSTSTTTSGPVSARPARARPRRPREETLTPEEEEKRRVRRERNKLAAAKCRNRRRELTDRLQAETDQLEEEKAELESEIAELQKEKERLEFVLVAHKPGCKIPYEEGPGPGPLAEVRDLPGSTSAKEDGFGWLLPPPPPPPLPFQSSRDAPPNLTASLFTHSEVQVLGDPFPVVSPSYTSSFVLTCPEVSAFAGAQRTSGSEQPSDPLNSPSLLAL
procedure summary: activators of delta FosB homodimer, primary screen, biochemical, fluorescence polarization, TAMRA-CDK5 oligo, single point (AID 493131);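 also: fluorescence polarization rise as delta FosB binds a TAMRA Cdk5 AP-1 oligo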
measurement conditions: purified delta FosB, at 25 µM, active compounds read high, percent of positive-control signal above neutral wells
The whole screen tested about 340,000 compounds, of which about 3,300 (0.97%) were called active. The sample as a whole holds a higher share of actives than the screen did.
value type: activation

- molecule: "COC(=O)CN1C(=O)N/C(=C/c2ccc(OC)c(C)c2OC)C1=O"
  activation: "-0.812% (inactive)"
- molecule: "Cc1ccccc1NC(=O)c1ccc(COc2ccc3c(C)cc(=O)oc3c2)cc1"
  activation: "22.2% (active)"
- molecule: "Cc1ccc(OCC(=O)NCCCNC(=O)c2cccnc2)cc1C"
  activation: "2.57% (inactive)"
- molecule: "CCOC(=O)c1cc(=O)c2ccc(OCc3ccccc3)cc2o1"
  activation: "-2.05% (inactive)"
- molecule: "O=C(NN=Cc1ccccc1)c1ccccc1"
  activation: "-3.35% (inactive)"
- molecule: "C/C(=C\\C(=O)c1cccnc1)Nc1ccc(C)c(C)c1"
  activation: "-1.12% (inactive)"
- molecule: "COc1cccc2c1C(=O)c1c(O)c3c(c(O)c1C2=O)CC(O)(C(C)=NNC(=O)c1ccc(Cl)c(Cl)c1)CC3OC1CC(N)C(O)C(C)O1 (stereo unspecified)"
  activation: "-409% (inactive)"
- molecule: "O=C(COc1ccccc1)Nc1nonc1NC(=O)COc1ccccc1"
  activation: "1.39% (inactive)"

Reported activation for `O=C(NN=Cc1ccccc1O)NN=Cc1ccccc1O` was 8.66% (inactive)

Reported activation for `O=C(N/N=C/c1cccc(O)c1)c1cc2c(ccc3ccccc32)o1` was 36.7% (active)

Reported activation for Cc1ccccc1CC1(CO)CCCN(Cc2ccc3c(c2)OCCO3)C1 (stereo unspecified) was -8.09% (inactive)

* * *

experimental system: Protein FosB (Mus musculus)
procedure summary: activators of delta FosB homodimer, primary screen, biochemical, fluorescence polarization, TAMRA-CDK5 oligo, single point (AID 493131);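 also: fluorescence polarization rise as delta FosB binds a TAMRA Cdk5 AP-1 oligo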
measurement conditions: purified delta FosB, at 25 µM, percent of positive-control signal above neutral wells
Out of some 340,000 compounds screened, about 3,300 (0.97%) were called active.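 How the source made its calls: active means mean activation above about 17%, with every replicate also reaching it (limit read from the data, passing the limit was not always enough); inconclusive means only one of the two conditions met; inactive means the rest.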 Shown is part of a subset that was picked to be rich in actives.
Please state which outcome applies, choosing from TRUE (active), FALSE (inactive)

- compound: "CCn1c(/C=C/Nc2ccccc2)[n+](CC)c2ccc(C(=O)OCC(F)(F)F)cc21"
  label: "FALSE"
- compound: "O=C(Nc1ccc2cn[nH]c2c1)c1ccc(S(=O)(=O)N2CCOCC2)cc1"
  label: "FALSE"
- compound: "CC(=O)N1CCN(CC(c2ccccc2)c2ccccc2)CC1"
  label: "FALSE"
- compound: "COc1ccc(OC)c(-n2c(=S)[nH]c3cc(C(=O)N4CCCCC4)ccc3c2=O)c1"
  label: "FALSE"
- compound: "Cc1ccc(NC(=O)/C(=C\\c2ccccc2)NC(=O)c2ccco2)cc1"
  label: "FALSE"
- compound: "COC(=O)/C(=C\\Nc1ccccc1)NC(=O)c1ccc(Cl)cc1Cl"
  label: "FALSE"
- compound: "Cc1cc(NC(=O)CSc2nnc(-c3ccco3)n2N)no1"
  label: "FALSE"
- compound: "COc1ccc(Cn2c(=S)[nH]c3cc(C(=O)N4CCCCC4)ccc3c2=O)cc1"
  label: "TRUE"
- compound: "CCOc1ccc(NC(=O)CSc2ncnc3c2sc2ccccc23)cc1"
  label: "FALSE"
- compound: "COc1ccc(OC)c(NC(=O)C2CCCN2S(=O)(=O)c2cccc3nsnc23)c1 (stereo unspecified)"
  label: "FALSE"

Okay, now this compound:
Input: // return assay outcome for `O=C(Cc1ccc(Br)cc1)NCCN1CCOCC1`
Output: FALSE

All figures here come from PubChem BioAssay AID493131.
